- target-of-assay: Carbonic anhydrase 6 (Homo sapiens, UniProt P23280)
- Sequence (P23280 whole entry): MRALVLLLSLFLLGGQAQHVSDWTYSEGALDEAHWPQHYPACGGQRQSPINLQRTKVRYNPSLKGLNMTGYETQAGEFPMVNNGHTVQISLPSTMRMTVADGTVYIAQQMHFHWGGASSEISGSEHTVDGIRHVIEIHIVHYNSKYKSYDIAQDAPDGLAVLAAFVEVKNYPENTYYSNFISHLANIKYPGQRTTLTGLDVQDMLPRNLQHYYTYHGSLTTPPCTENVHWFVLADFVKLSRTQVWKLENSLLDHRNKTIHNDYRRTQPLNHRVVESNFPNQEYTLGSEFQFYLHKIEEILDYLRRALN
reported-endpoint: pKi
Answers are plain numbers, as −log10 of the molar value.

Looking up O=C(c1ccc(O)c(O)c1)c1ccc(O)c(O)c1 [Bis(3,4-dihydroxyphenyl)methanone] , I found its pKi recorded as 4.94

###

- target-of-assay: Carbonic anhydrase 2 (Homo sapiens)
reported-endpoint: pKi
Numbers only, as −log10 of the molar value.

Looking up O=C(c1ccc(O)c(O)c1)c1ccc(O)c(O)c1 [Bis(3,4-dihydroxyphenyl)methanone] , I found its pKi recorded as 5.84
